# measured-on: HLA-C*12:03
# assay: IEDB peptide-MHC binding, purified MHC/direct/fluorescence; filed as Kd, often an IC50 or EC50 that approximates it; bounds were set here for any values at or beyond the usual limits of such assays
# experimental-context: source organism: Brucella abortus S19
readout-type: Kd

[[record]]
primary_sequence = "YMRERLSDF"
readout_value = "94 nM"


----------
# measured-on: HLA-A*02:02
# assay: IEDB peptide-MHC binding, purified MHC/competitive/radioactivity; filed as Kd, often an IC50 or EC50 that approximates it; bounds were set here for any values at or beyond the usual limits of such assays
# experimental-context: source organism: Homo sapiens
pKd: −log10 of the molar value.
readout-type: pKd

[[record]]
primary_sequence = "SMEAEMIQL"
readout_type = "pKd"
readout_value = 7.15


----------
# measured-on: HLA-A*02:01
# assay: IEDB peptide-MHC binding, purified MHC/direct/fluorescence; filed as Kd, often an IC50 or EC50 that approximates it; bounds were set here for any values at or beyond the usual limits of such assays
# experimental-context: source organism: Salmonella enterica
The following sequences are listed with their measured Kd values.
readout-type: Kd

[[record]]
primary_sequence = "RKAGVNQAK"
measured_on = "HLA-A*02:01"
readout_value = "≥ 20 µM"

[[record]]
primary_sequence = "MGKTITDVK"
measured_on = "HLA-A*02:01"
readout_value = "≥ 20 µM"


----------
# measured-on: HLA-A*30:02
# assay: IEDB peptide-MHC binding, purified MHC/competitive/radioactivity; filed as Kd, often an IC50 or EC50 that approximates it; bounds were set here for any values at or beyond the usual limits of such assays
# experimental-context: source organism: SARS coronavirus Tor2
pKd: −log10 of the molar value.
readout-type: pKd

[[record]]
primary_sequence = "GPDDQIGYY"
measured_on = "HLA-A*30:02"
readout_type = "pKd"
sign_qualifier = "="
readout_value = 5.61

[[record]]
primary_sequence = "WFITQRNFF"
measured_on = "HLA-A*30:02"
readout_type = "pKd"
sign_qualifier = "="
readout_value = 6.86

[[record]]
primary_sequence = "GYKNVRITF"
measured_on = "HLA-A*30:02"
readout_type = "pKd"
sign_qualifier = "≤"
readout_value = 4.64

[[record]]
primary_sequence = "SAAAYFVGY"
measured_on = "HLA-A*30:02"
readout_type = "pKd"
sign_qualifier = "="
readout_value = 7.75

[[record]]
primary_sequence = "TYVPSQERNF"
measured_on = "HLA-A*30:02"
readout_type = "pKd"
sign_qualifier = "="
readout_value = 4.85

[[record]]
primary_sequence = "TAEDMLNPNY"
measured_on = "HLA-A*30:02"
readout_type = "pKd"
sign_qualifier = "="
readout_value = 5.97

[[record]]
primary_sequence = "AEDMLNPNY"
measured_on = "HLA-A*30:02"
readout_type = "pKd"
sign_qualifier = "="
readout_value = 4.89

[[record]]
primary_sequence = "PTITQMNLKY"
measured_on = "HLA-A*30:02"
readout_type = "pKd"
sign_qualifier = "="
readout_value = 5.95

[[record]]
primary_sequence = "LSFKELLVY"
measured_on = "HLA-A*30:02"
readout_type = "pKd"
sign_qualifier = "="
readout_value = 7.29

[[record]]
primary_sequence = "VTPSGTWLTY"
measured_on = "HLA-A*30:02"
readout_type = "pKd"
sign_qualifier = "="
readout_value = 7.34

[[record]]
primary_sequence = "LQSLENVAY"
measured_on = "HLA-A*30:02"
readout_type = "pKd"
sign_qualifier = "="
readout_value = 6.21

[[record]]
primary_sequence = "LSDDAVVCY"
measured_on = "HLA-A*30:02"
readout_type = "pKd"
sign_qualifier = "="
readout_value = 5.84

[[record]]
primary_sequence = "AFNCTFEYI"
measured_on = "HLA-A*30:02"
readout_type = "pKd"
sign_qualifier = "="
readout_value = 5.85

[[record]]
primary_sequence = "AYLRKHFSM"
measured_on = "HLA-A*30:02"
readout_type = "pKd"
sign_qualifier = "≤"
readout_value = 4.12

[[record]]
primary_sequence = "FTILCLVPAY"
measured_on = "HLA-A*30:02"
readout_type = "pKd"
sign_qualifier = "="
readout_value = 6.48


----------
# measured-on: HLA-A*31:01
# assay: IEDB peptide-MHC binding, purified MHC/competitive/radioactivity; filed as Kd, often an IC50 or EC50 that approximates it; bounds were set here for any values at or beyond the usual limits of such assays
# experimental-context: source organism: Mammarenavirus juninense
pKd: −log10 of the molar value.
The following sequences are listed with their measured pKd values.
readout-type: pKd

[[record]]
primary_sequence = "MRYTCLNSEK"
measured_on = "HLA-A*31:01"
readout_value = 5.30

[[record]]
primary_sequence = "TVFFTASLFL"
measured_on = "HLA-A*31:01"
readout_value = 5.14


----------
# measured-on: HLA-A*23:01
# assay: IEDB peptide-MHC binding, purified MHC/competitive/radioactivity; filed as Kd, often an IC50 or EC50 that approximates it; bounds were set here for any values at or beyond the usual limits of such assays
# experimental-context: source organism: Dengue virus 3 Martinique/1243/1999
pKd: −log10 of the molar value.
readout-type: pKd

[[record]]
primary_sequence = "DFAGKTVWF"
readout_value = 5.19

[[record]]
primary_sequence = "AWMVHRQWFF"
readout_value = 8.02

[[record]]
primary_sequence = "YWISNGTGNI"
readout_value = 6.78

[[record]]
primary_sequence = "YAQMWSLMYF"
readout_value = 6.23


----------
# measured-on: HLA-B*18:01
# assay: IEDB peptide-MHC binding, purified MHC/competitive/fluorescence; filed as Kd, often an IC50 or EC50 that approximates it; bounds were set here for any values at or beyond the usual limits of such assays
# experimental-context: source organism: Vibrio parahaemolyticus K5030
pKd: −log10 of the molar value.
readout-type: pKd

[[record]]
primary_sequence = "LQNFCQHLV"
readout_value = "≤ 4.70"


----------
# measured-on: HLA-A*29:02
# assay: IEDB peptide-MHC binding, purified MHC/direct/fluorescence; filed as Kd, often an IC50 or EC50 that approximates it; bounds were set here for any values at or beyond the usual limits of such assays
# experimental-context: source organism: Yersinia enterocolitica subsp. enterocolitica 8081
pKd: −log10 of the molar value.
readout-type: pKd

[[record]]
primary_sequence = "ETIFTVLAL"
readout_type = "pKd"
readout_value = 6.74


----------
# measured-on: HLA-B*39:01
# assay: IEDB peptide-MHC binding, purified MHC/direct/fluorescence; filed as Kd, often an IC50 or EC50 that approximates it; bounds were set here for any values at or beyond the usual limits of such assays
# experimental-context: source organism: Vibrio parahaemolyticus AQ3810
readout-type: Kd

[[record]]
primary_sequence = "EPFLVQFWI"
readout_value = "≥ 20 µM"


----------
# measured-on: HLA-B*18:01
# assay: IEDB peptide-MHC binding, purified MHC/direct/fluorescence; filed as Kd, often an IC50 or EC50 that approximates it; bounds were set here for any values at or beyond the usual limits of such assays
# experimental-context: source organism: Vibrio parahaemolyticus AQ3810
readout-type: Kd

[[record]]
primary_sequence = "EPFLVQFWI"
readout_type = "Kd"
readout_value = "≥ 20 µM"


----------
# measured-on: HLA-B*44:02
# assay: IEDB peptide-MHC binding, purified MHC/direct/fluorescence; filed as Kd, often an IC50 or EC50 that approximates it; bounds were set here for any values at or beyond the usual limits of such assays
# experimental-context: source organism: Campylobacter jejuni RM1221
readout-type: Kd

[[record]]
primary_sequence = "IYDYLRLLY"
measured_on = "HLA-B*44:02"
readout_type = "Kd"
readout_value = "≥ 20 µM"


----------
# measured-on: HLA-C*14:02
# assay: IEDB peptide-MHC binding, purified MHC/direct/fluorescence; filed as Kd, often an IC50 or EC50 that approximates it; bounds were set here for any values at or beyond the usual limits of such assays
# experimental-context: source organism: Campylobacter jejuni
pKd: −log10 of the molar value.
readout-type: pKd

[[record]]
primary_sequence = "YTKKYLLSF"
readout_value = 5.69


----------
# measured-on: HLA-A*26:01
# assay: IEDB peptide-MHC binding, purified MHC/competitive/fluorescence; filed as Kd, often an IC50 or EC50 that approximates it; bounds were set here for any values at or beyond the usual limits of such assays
# experimental-context: source organism: Burkholderia vietnamiensis G4
pKd: −log10 of the molar value.
readout-type: pKd

[[record]]
primary_sequence = "GVNDTEAHA"
readout_value = "≤ 4.70"


----------
# measured-on: HLA-B*35:01
# assay: IEDB peptide-MHC binding, purified MHC/competitive/radioactivity; filed as Kd, often an IC50 or EC50 that approximates it; bounds were set here for any values at or beyond the usual limits of such assays
# experimental-context: source organism: Vaccinia virus Copenhagen
pKd: −log10 of the molar value.
readout-type: pKd

[[record]]
primary_sequence = "NLFDIPLLTV"
readout_value = "≤ 4.16"


Data provenance is the Immune Epitope Database (IEDB).
